These entries and their values trace back to ChEMBL document CHEMBL1125927.

assay: physchem
Description: Dissociation constant (pKa)
Catalogue of molecules with associated pKa
RESULT_TYPE: pKa

In [3]: df
Out[3]:
                                     smiles  test_result
0     Cl.NS(=O)(=O)c1cc2cc(CN(CCO)CCO)sc2s1          5.5
1  COCCOCCN(CCOC)Cc1cc2cc(S(N)(=O)=O)sc2s1.Cl         5.55
2            CNCc1cc2cc(S(N)(=O)=O)sc2s1.Cl         8.02
3   COCCN(CCOC)Cc1cc2sc(S(N)(=O)=O)cc2s1.Cl         5.48
4            CNCc1cc2sc(S(N)(=O)=O)cc2s1.Cl         7.65
5         COCCNCc1cc2sc(S(N)(=O)=O)cc2s1.Cl         6.65
6          Cl.NS(=O)(=O)c1cc2cc(CNCCF)sc2s1          6.4

* * *

biological target: Carbonic anhydrase 2 (Homo sapiens, UniProt P00918)
pIC50: −log10 of the molar value.
Catalogue of molecules with associated pIC50
RESULT_TYPE: pIC50

In [3]: df
Out[3]:
                                    molecule  test_result
 0            CNCc1cc2cc(S(N)(=O)=O)sc2s1.Cl         8.52
 1   COCCN(CCOC)Cc1cc2cc(S(N)(=O)=O)sc2s1.Cl         8.38
 2     Cl.NS(=O)(=O)c1cc2cc(CN(CCO)CCO)sc2s1         8.64
 3           NS(=O)(=O)c1cc2cc(CNCCCCO)sc2s1         8.52
 4  NS(=O)(=O)c1cc2cc(C(=O)NCC(O)CO)sc2s1 (stereo unspecified)         8.49
 5      Cl.NS(=O)(=O)c1cc2cc(CN3CCSCC3)sc2s1         8.59
 6          NS(=O)(=O)c1cc2cc(CNCC3CC3)sc2s1         8.48
 7          CC(C)CNCc1cc2cc(S(N)(=O)=O)sc2s1         8.60
 8  Cl.NS(=O)(=O)c1cc2cc(C(=O)NCCN3CCSCC3)sc2s1         8.54
 9          Cl.NS(=O)(=O)c1cc2cc(CNCCF)sc2s1         8.57
10      Cl.NS(=O)(=O)c1cc2cc(CN3CCOCC3)sc2s1         8.52

* * *

target: Carbonic anhydrase 2 (Homo sapiens, UniProt P00918)
Catalogue of compounds with associated IC50
RESULT_TYPE: IC50

>>> print(df.to_string())
                                     smiles  test_result
0         NS(=O)(=O)c1cc2cc(CNC(CO)CO)sc2s1       8.4 nM
1             NS(=O)(=O)c1cc2cc(CNCCO)sc2s1       6.3 nM
2  CN(C)CCNC(=O)c1cc2cc(S(N)(=O)=O)sc2s1.Cl       8.8 nM
3  Cl.NS(=O)(=O)c1cc2cc(C(=O)NCCN3CCOCC3)sc2s1       2.9 nM
